The following variants are listed with their measured protein stability index values.
B1: SCNN1D (parent)
chain: FYRLYQDLETHRLPCTSRCPRPCR

# Variants of: B1
# Experiment: protein stability index of a GFP-peptide fusion (GPS, HEK-293T) (PSI 1-6); higher = more stable;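 note: lentivirally expressed fusions sorted by FACS into six bins by GFP to DsRed ratio, PSI derived from sequencing read proportions per bin multiplied by bin number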
# Run Parameters: c terminus: a fixed tail appended
Readout Name: protein stability index

{"columns": ["Var", "Quantitative Result"],
 "data": [
  ["P14S", 2.44],
  ["C19I", 2.64],
  ["R24N", 1.61],
  ["L13Q", 2.03],
  ["S17Y", 2.09],
  ["T16V", 1.94],
  ["L8S", 2.47],
  ["Y5D", 3.64],
  ["R12K", 2.37],
  ["S17H", 2.33],
  ["L13H", 2.38],
  ["F1I", 2.12],
  ["P14Q", 1.94],
  ["H11E", 2.31],
  ["R18G", 2.54],
  ["Y5V", 1.88],
  ["P14W", 1.57],
  ["R24C", 1.77],
  ["P14Y", 1.45],
  ["E9K", 2.38],
  ["C15T", 2],
  ["T10L", 2.29]
]}

Source of measurements: the supplement of paper PMC10567573
